assay.target: T1, human Plk4 cryptic polo box (CPB, residues 580–808), His6-MBP tag removed (human, UniProt O00444 580-808)
T1 sequence (looked up): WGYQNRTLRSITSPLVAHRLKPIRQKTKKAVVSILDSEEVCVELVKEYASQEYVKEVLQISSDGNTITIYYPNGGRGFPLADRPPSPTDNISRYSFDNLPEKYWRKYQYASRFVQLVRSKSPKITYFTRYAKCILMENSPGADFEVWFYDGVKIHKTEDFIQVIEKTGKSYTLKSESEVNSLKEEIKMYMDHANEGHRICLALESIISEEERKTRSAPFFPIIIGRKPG
assay.overview: fluorescence polarisation
observable: pIC50
Worth noting: pIC50 values are minus log10 of concentrations stated in mol/L.

Problem: Look up pIC50 for this binder: His6-MBP-TEV-Cep152 60mer (1–60) (domain or fragment, human, UniProt O94986 1-60, looked up) MSLDFGSVALPVQNEDEEYDEEDYEREKELQQLLTDLPHDMLDDDLSSPELQYSDCSEDG
Result: 7.19
